Each recorded value in this set is attributed to ChEMBL document CHEMBL1131191.

- target under test: Delta-type opioid receptor (Mus musculus, UniProt P32300)
- Sequence (P32300 whole entry): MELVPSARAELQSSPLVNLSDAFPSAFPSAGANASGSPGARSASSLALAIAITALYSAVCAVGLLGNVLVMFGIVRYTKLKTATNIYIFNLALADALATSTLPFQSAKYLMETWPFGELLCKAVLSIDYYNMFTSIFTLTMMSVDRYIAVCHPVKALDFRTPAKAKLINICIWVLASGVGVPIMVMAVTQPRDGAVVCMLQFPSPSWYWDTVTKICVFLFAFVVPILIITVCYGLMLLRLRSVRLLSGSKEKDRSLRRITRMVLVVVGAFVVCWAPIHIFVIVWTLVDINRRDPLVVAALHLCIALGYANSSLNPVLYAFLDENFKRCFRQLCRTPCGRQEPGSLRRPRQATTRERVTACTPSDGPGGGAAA
- assay summary: Tested for electrically induced smooth muscle contractions from mouse vas deferens expressed in delta opioid receptors
pEC50: −log10 of the molar value.
Decide by pEC50: equal to or exceeding 7 means Condition met, less means Condition not met.

molecule | label value
Cc1cc(O)cc(C)c1[C@@H](C)[C@H](N)C(=O)N[C@H]1C(=O)NCC(=O)N[C@@H](Cc2ccccc2)C(=O)N[C@@H](C(=O)O)C(C)(C)SSC1(C)C | Condition met
CC(C)(C)c1ccc(C(c2cccc(O)c2)N2CCN(Cc3ccccc3)CC2)cc1 (single isomer, unassigned; (-)) | Condition not met
Oc1cccc(C(c2ccccc2)N2CCN(Cc3ccccc3)CC2)c1 (stereo not given) | Condition not met
CC(C)(C)c1ccc(C(c2cccc(O)c2)N2CCN(Cc3ccccc3)CC2)cc1 (single isomer, unassigned; (+)) | Condition not met
